Reference for the values: ChEMBL document CHEMBL1201862

# Test system: HOP-18
# protocol description: NCI tumour cell line growth inhibition, 48 h
Activity calls are given as the source filed them. No stated cut-off is given here; in the data, active = GI50 up to about 1.1 µM and inactive = higher.
Pick from 1 (active), -1 (inactive) when you respond.

Worked set:
compound	category label
N#CC(C#N)=C(N)/C(C#N)=C/c1ccc2[nH]ccc2c1	-1
COc1cccc2c1C(=O)c1c(O)c3c(c(O)c1C2=O)C[C@@](O)(C(C)=O)C[C@@H]3OC1CC(N(Cc2ccccc2)Cc2ccccc2)C(O)C(C)O1 (stereo partly drawn)	-1
O=C1OC(c2cccc(C(F)(F)F)c2)c2ccc3ccccc3c21 (stereo not drawn)	-1
Cn1cc(NC(=O)c2cc(NC(=O)CCCCCCCCC(=O)Nc3cc(C(=O)Nc4cc(C(=O)NCCC(N)N)n(C)c4)n(C)c3)cn2C)cc1C(=O)NCCC(=N)N	-1
O=c1cnn2c(n1)sc1ccc3ccccc3c12	-1

Hello, I am checking results. What call was entered for CCOC(=O)C(Cc1c[nH]c2cc([N+](=O)[O-])ccc12)NS(=O)(=O)c1ccc2ccccc2c1 (stereo not drawn) ?
-1

Which result was noted for this compound in the test: COc1ccc(NC(=O)CCc2cc(C(C)(C)C)[nH]n2)cc1
-1

Which outcome did this test record for the compound Cc1c2cc[n+](C)cc2c(C)c2c1[nH]c1ccc(O)cc12 [ELLIPTINIUM ACETATE] ?
-1

Tell me the recorded outcome of this test for O=C(CC(=O)Nc1ccc(Cl)cc1)NNCC(=O)Nc1nc(-c2ccccc2)cs1 .
-1

Short answer needed: outcome of this test for COc1ccc(-c2nc(N)nc(-c3cc(C)ccc3O)c2Cl)cc1 ?
-1

// return assay outcome for COc1ccc(-c2onc(-c3c(C)cc(C)cc3C)c2C2=NCCCN2)cc1
-1

Could you kindly confirm the outcome this assay logged for COC(=O)/C(C)=C(/CCC1(C)OCCO1)O[Si](C)(C)C ?
-1

---

# Test system: M14
# protocol description: NCI tumour cell line growth inhibition, 48 h
Active and inactive are the calls of the source. No stated cut-off is given here; in the data, active = GI50 up to about 1.1 µM and inactive = higher.
Please respond with reported GI50 for every item in the list.

Hey, quick one: what's GI50 for each of these?
1. Cc1ccc(-c2n[nH]c(=O)[nH]2)cc1
2. Brc1ccc2[nH]cc([C@H]3CN[C@@H](c4c[nH]c5ccc(Br)cc45)CN3)c2c1

> 100 µM (inactive)
1.81 µM (inactive)

---

So I've got a bunch of molecules here, and I need their GI50 values.
# Tested on: SK-MEL-28
# protocol description: NCI tumour cell line growth inhibition, 48 h
Calls of active or inactive are those of the source. Cut-off read from the data, not from the text of the source: active = GI50 up to about 1.1 µM and inactive = higher.

Recorded GI50, per entry:
>>> df
                                   molecule  measured_quantity          measurement
0  C=C1C(=O)C2=C[C@H]1C[C@H](O)C(=O)[C@]1(C)CCCC(C)(C)[C@H]1C[C@H]2O               GI50   1.73 µM (inactive)
1  CCCCC(NC(=O)CC)C(=O)O (stereo not given)               GI50  > 100 µM (inactive)
2  CC(C)C(NC(=O)C(Cc1ccccc1)NC(=O)[C@H]1CCC[C@H]1NC(=O)C(N)Cc1ccc(O)cc1)C(N)=O (stereo not given in full)               GI50  > 100 µM (inactive)
3        Clc1ccc(/N=C/C=C/Nc2ccc(Cl)cn2)nc1               GI50   18.6 µM (inactive)

Would you be so kind as to report GI50 for each listed record?
1. Cc1c2cc[n+](C)cc2c(C)c2c1[nH]c1ccc(O)cc12 [ELLIPTINIUM ACETATE]
2. COc1ccc(/C=C/c2cnccn2)cc1OC

1. 6.87 µM (inactive)
2. > 10 µM (inactive)

Report GI50 for each item below.
1. COC(=O)C1=C(C)N(NC(=O)c2cccc(Cl)c2)C(C)(O)C12CCOC2=O (stereo not given)
2. CSC(=N)NNC(=O)CCC(=O)Nc1ccccc1C(F)(F)F
3. c1ccc2c(c1)SC1Sc3ccccc3[S+]21 (stereo not given)
4. CC(=O)c1sc(=N)n(-c2c(C)cccc2C)c1C

> 100 µM (inactive)
> 100 µM (inactive)
16.1 µM (inactive)
> 100 µM (inactive)
